Molecular target: T1, CD11b A-domain CD11bA-D242A, construct BZ348011 (human, UniProt P11215 148-337)
T1 construct: MIDAS residue D242 replaced with alanine (no MIDAS metal)
T1 chain: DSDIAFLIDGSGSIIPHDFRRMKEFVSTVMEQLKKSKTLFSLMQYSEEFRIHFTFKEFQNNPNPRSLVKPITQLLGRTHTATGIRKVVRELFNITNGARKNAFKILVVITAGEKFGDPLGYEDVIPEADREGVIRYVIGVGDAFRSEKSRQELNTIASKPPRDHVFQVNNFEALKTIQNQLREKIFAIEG
Assay: counterscreen phage ELISA on coated antigen
Experimental: After 2 rounds of enrichment against the primary target, positive binders were identified by phage ELISA and analyzed by restriction mapping & sequencing for identification of unique clones. Small scale phage growths were diluted 1:5 in TBS+casein. […] Bound phage were detected by incubation for 1 hour with anti-M13-HRP and after washing as above, developed with TMB. Absorbance at 450 nm was read after acidification of the wells.
reported_metric: Absorbance at 450 nM
Enter the number alone.

• Clone 6 149-014-6 (VL-linker-VH) (scFv, From the naive human scFv phage display library) scFv: QSVLTQPPSASGTPGQRVTISCSGSSSNIGSNYVSWYQQLPGTAPKLLIYDNNKRPSGIPDRFSGSKSGTSATLGITGLQTGDEADYYCGTWDSSLSALYVFGAGTKLTVLGEGKSSGSGSESKASQVQLQESGPGLVKPSETLSLTCSVSGGSTSSYYWSWIRQPPGKGLEWIGYISNSGSTNYNPSLKSRVTMSIDTSNNQFSLKLSSVTAADTAVYYCASHLGATWRWGQGTLVTVSS = 0.169
• Clone 5 149-014-5 (VL-Linker-VH) (scFv, From the naive human scFv phage display library) scFv: SSELTQDPAVSVALGQTVRITCQGDSLRSYYASWYQQKPGQAPVLVIYGKNNRPSGIPDRFSGSTSGNFASLTITGAQAEDGADYYCHSRDSSGNHLVFGGGTKLTVLGEGKSSGSGSESKASEVQLVQSGAEVKKPGESLKISCKGSGYSFTSYWIGWVRQMPGKGLEWMGIIYPGDSDTRYSPSFQGQVTISADKSISTAYLQWSSLKASDTAMYYCARRARGAFDIWGQGTLVTVSS = 1.77
• Clone 14 149-014-14 (VK-Linker-VH) (scFv, From the naive human scFv phage display library) scFv: DVVMTQSPLSLPATLGQPASISCRSSQSLVYTDGNTYLNWFQQRPGQSPRRLIYKVSNRDSGVPDRFSGSGSGTHFTLKISRVEAEDVGVYYCMQGTHWPPTFGQGTKVEIKEGKSSGSGSESKASEVQLVQSGAEVKKPGASVKVSCKASGGTFSSYAISWVRQAPGQGLEWMGGIIPIFGTANYAQKFQGRVTITADESTSTAYMELSSLRSEDTAVYYCASSGVDYWGQGTLVTVSS = 0.259

Incoming: Name the reported Absorbance at 450 nM value associated with the binder Clone 13 149-014-13 VH only (other) VH: EVQLLESGGGLVQPGGSLRLSCAASGFTFSSDLMSWVRQAPGKGLEWVSAISGSGGSTYYADSVKGRFTISRDNSKNTLYLQMNSLRAEDTAVYYCAKNEVIFDYWGQGTLVTVSSASTKGLSMFDYWGQGTKVEIK
Outgoing: 0.183
